System: Viola tricolor (VIOTR)
Assay: Post-emergence herbicidal efficacy at 80 g/ha, greenhouse pot test
Type: in vivo
Conditions: visual rating vs untreated control after about 3 weeks
Experimental: Seeds of monocotyledonous and dicotyledonous weeds and crop plants were placed in sandy loam in plastic or organic planting pots, covered with soil and cultivated in a greenhouse under controlled growth conditions. 2 to 3 weeks after sowing, the test plants were treated at the one-leaf stage. […]
Each entry below carries its reported Post-emergence efficacy against Viola tricolor (VIOTR).
Measured endpoint: Post-emergence efficacy against Viola tricolor (VIOTR) (%)

• Cc1cc(C)c(-c2cc(C(F)F)on2)c(Oc2ncc(Cl)cn2)n1 [Example I-10] = 100
• Cc1cc(C)c(-c2cc(C(F)F)no2)c(Oc2ncc(F)cn2)n1 [Example I-4] = 80
• Cc1cc(C)c(-c2cc(C(F)F)on2)c(Oc2ncc(F)cn2)n1 [Example I-3] = 100
• Cc1cc(C)c(-c2cc(C(F)F)no2)c(Oc2ncc(Cl)cc2F)n1 [Example I-14] = 100
• Cc1cc(C)c(-c2cc(C(F)F)no2)c(Oc2ccc(C#N)cn2)n1 [Example I-292] = 90
• Cc1cc(C)c(-c2cc(C(F)(F)F)on2)c(Oc2ncc(Cl)cn2)n1 [Example I-7] = 90
• Cc1cc(C)c(-c2cc(C(F)(F)Cl)no2)c(Oc2ncc(Cl)cn2)n1 [Example I-8] = 90
• Cc1cc(C)c(-c2cc(C(F)(F)F)no2)c(Oc2ncc(Cl)cn2)n1 [Example I-2] = 90
• Cc1cc(C)c(-c2cc(C(F)Cl)no2)c(Oc2ncc(Cl)cn2)n1 (centres unmarked) [Example I-5] = 80
• Cc1cc(C)c(-c2cc(C(F)F)no2)c(Oc2ncc(Cl)cn2)n1 [Example I-1] = 90
• Cc1cc(C)c(-c2cc(C(F)F)no2)c(Oc2ccc(Cl)cn2)n1 [Example I-43] = 80

###

Each entry below carries its reported Post-emergence efficacy against Amaranthus retroflexus (AMARE).
system: Amaranthus retroflexus (AMARE); assay: Post-emergence herbicidal efficacy at 320 g/ha, greenhouse pot test; assay type: in vivo; conditions: visual rating vs untreated control after about 3 weeks
Measured endpoint: Post-emergence efficacy against Amaranthus retroflexus (AMARE) (%)

* Cc1cc(C)c(-n2cc(Br)cn2)c(Oc2ncc(Cl)cn2)n1 | 100
* Cc1ccc(-c2cc(C(F)F)on2)c(Oc2ncc(F)cn2)n1 | 90
* Cc1cc(C)c(-c2cc(C3CC3)no2)c(Oc2ncc(Br)cn2)n1 | 90
* Cc1cc(C)c(-c2cc(C3CC3)no2)c(Oc2ncc(F)cn2)n1 | 100
* Cc1cc(C)c(-c2cc(C(F)(F)F)on2)c(Oc2ncc(Cl)cn2)n1 | 90

###

tested on: Amaranthus retroflexus (AMARE); test: Post-emergence herbicidal efficacy at 320 g/ha, greenhouse pot test; assay type: in vivo; settings: visual rating vs untreated control after about 3 weeks
Each entry below carries its reported Post-emergence efficacy against Amaranthus retroflexus (AMARE).
Measured endpoint: Post-emergence efficacy against Amaranthus retroflexus (AMARE)

• Cc1cc(C)c(-c2cc(C(F)F)no2)c(Oc2ncc(Cl)cn2)n1 [Example I-1] = 100%
• Cc1cc(C)c(-c2cc(C(F)F)no2)c(Oc2ccc(Cl)cn2)n1 [Example I-43] = 100%
• Cc1cc(C)c(-c2cc(C(F)F)no2)c(Oc2ncc(Br)cn2)n1 [Example I-41] = 100%
• Cc1cc(C)c(-c2cc(C(F)F)no2)c(Oc2ncc(Cl)cc2F)n1 [Example I-14] = 90%
• Cc1cc(C)c(-n2cc(I)cn2)c(Oc2ncc(Cl)cn2)n1 [Example I-295] = 90%
• Cc1cc(C)c(-n2cc(I)cn2)c(Oc2ncc(F)cn2)n1 [Example I-294] = 100%
• Cc1cc(C)c(-c2cc(C(F)F)no2)c(Oc2ncc(Cl)cc2Cl)n1 [Example I-288] = 100%
• Cc1cc(C)c(-c2cc(CC3CC3)no2)c(Oc2ncc(F)cn2)n1 [Example I-200] = 90%
• Cc1cc(C)c(-c2cc(C(F)F)on2)c(Oc2ncc(F)cn2)n1 [Example I-3] = 90%
• Cc1cc(C)c(-c2cc(C(F)Cl)no2)c(Oc2ncc(Cl)cn2)n1 (stereo not drawn) [Example I-5] = 100%
• Cc1cc(C)c(-c2cc(C(F)F)no2)c(Oc2ncc(Cl)cc2C#N)n1 [Example I-290] = 100%
• Cc1cc(C)c(-c2cc(C(F)F)no2)c(Oc2ncc(C#N)cn2)n1 [Example I-46] = 100%
• Cc1cc(C)c(-c2cc(C3CC3)no2)c(Oc2ncc(Cl)cn2)n1 [Example I-179] = 90%
• Cc1cc(C)c(-c2cc(C(F)F)no2)c(Oc2ncc(F)cc2C#N)n1 [Example I-289] = 100%
• Cc1cc(C)c(-c2cc(C(F)F)no2)c(Oc2ncc(Br)cc2C#N)n1 [Example I-291] = 90%
• Cc1cc(C)c(-c2cc(C(F)F)no2)c(Oc2ccc(C#N)cn2)n1 [Example I-292] = 100%
• Cc1cc(C)c(-c2cc(C(F)(F)F)no2)c(Oc2ncc(Cl)cn2)n1 [Example I-2] = 100%
• Cc1cc(C)c(-c2cc(C(F)(F)Cl)no2)c(Oc2ncc(Cl)cn2)n1 [Example I-8] = 100%
